Source listed as paper PMC10244618.

B1: NF2 (merlin) isoform 7, human, full length (507 aa, lacks exons 2-3 = isoform-1 residues 39-121; exon-16 C-terminus), P35240-4 (parent)
chain: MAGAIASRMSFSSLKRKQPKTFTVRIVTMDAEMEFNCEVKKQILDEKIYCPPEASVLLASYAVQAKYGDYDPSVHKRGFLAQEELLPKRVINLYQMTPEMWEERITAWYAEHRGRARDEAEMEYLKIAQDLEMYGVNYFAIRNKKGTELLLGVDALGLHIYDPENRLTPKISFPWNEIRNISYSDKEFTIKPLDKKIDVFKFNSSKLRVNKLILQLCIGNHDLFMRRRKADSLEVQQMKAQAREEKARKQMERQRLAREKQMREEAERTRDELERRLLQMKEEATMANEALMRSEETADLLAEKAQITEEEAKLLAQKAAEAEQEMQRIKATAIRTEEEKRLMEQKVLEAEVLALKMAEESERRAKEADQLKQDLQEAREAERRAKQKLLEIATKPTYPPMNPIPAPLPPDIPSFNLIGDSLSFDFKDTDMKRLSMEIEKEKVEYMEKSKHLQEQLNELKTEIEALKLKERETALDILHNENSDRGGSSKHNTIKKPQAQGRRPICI

variants of: B1; assay: reverse yeast two-hybrid deep mutational scan (rY2H-seq): NF2 isoform 7 mutant library as bait mated with wild-type prey strains; selection on medium lacking adenine for non-interacting pairs; NextSeq paired-end sequencing; enrichment vs …; conditions: with PIK3R3 (phosphatidylinositol 3-kinase regulatory subunit gamma), Q92569; yeast diploids after mating (RBait_S3 x RPrey_S3), 30 °C, selection for reporter genes on NB agar; human tyrosine kinase ABL2 co-expressed as the active kinase …; HIGHER = WEAKER BINDING (the opposite of display enrichments): higher = stronger loss of interaction: reverse Y2H selects yeast in which bait and prey do NOT interact (growth without adenine), so a …; hits-only table; scale: rY2H score; numbering: uniprot, sequence starts at 1
The threshold is inclusive: enrichment of exactly 3 counts as yes; values below receive no.

Query: Textbook exercise: given the entry E321L , state whether its enrichment is greater than or equal to 3.
Result: yes

Query: Textbook exercise: given the entry D71T , state whether its enrichment is greater than or equal to 3.
Result: yes

Query: Textbook exercise: given the entry K318A , state whether its enrichment is greater than or equal to 3.
Result: yes

Query: Textbook exercise: given the entry A287E , state whether its enrichment is greater than or equal to 3.
Result: no

Query: Textbook exercise: given the entry A381V , state whether its enrichment is greater than or equal to 3.
Result: no

Query: Textbook exercise: given the entry L149P , state whether its enrichment is greater than or equal to 3.
Result: no

Query: Textbook exercise: given the entry S483E , state whether its enrichment is greater than or equal to 3.
Result: yes

Query: Textbook exercise: given the entry P87S , state whether its enrichment is greater than or equal to 3.
Result: no

Query: Textbook exercise: given the entry A302T , state whether its enrichment is greater than or equal to 3.
Result: yes

Query: Textbook exercise: given the entry H159E , state whether its enrichment is greater than or equal to 3.
Result: yes

Query: Textbook exercise: given the entry V74C , state whether its enrichment is greater than or equal to 3.
Result: no

Query: Textbook exercise: given the entry T332L , state whether its enrichment is greater than or equal to 3.
Result: no

Query: Textbook exercise: given the entry P410L , state whether its enrichment is greater than or equal to 3.
Result: no

Query: Textbook exercise: given the entry M133I , state whether its enrichment is greater than or equal to 3.
Result: no

Query: Textbook exercise: given the entry K313A , state whether its enrichment is greater than or equal to 3.
Result: yes

Query: Textbook exercise: given the entry I171K , state whether its enrichment is greater than or equal to 3.
Result: yes

Query: Textbook exercise: given the entry A59L , state whether its enrichment is greater than or equal to 3.
Result: yes

Query: Textbook exercise: given the entry S414L , state whether its enrichment is greater than or equal to 3.
Result: yes

Query: Textbook exercise: given the entry V56L , state whether its enrichment is greater than or equal to 3.
Result: no

Query: Textbook exercise: given the entry A319E , state whether its enrichment is greater than or equal to 3.
Result: yes

Query: Textbook exercise: given the entry I171L , state whether its enrichment is greater than or equal to 3.
Result: no

Query: Textbook exercise: given the entry M292S , state whether its enrichment is greater than or equal to 3.
Result: no

Query: Textbook exercise: given the entry S55K , state whether its enrichment is greater than or equal to 3.
Result: yes

Query: Textbook exercise: given the entry P163L , state whether its enrichment is greater than or equal to 3.
Result: yes

Query: Textbook exercise: given the entry L417K , state whether its enrichment is greater than or equal to 3.
Result: no

Query: Textbook exercise: given the entry Q64L , state whether its enrichment is greater than or equal to 3.
Result: yes

Query: Textbook exercise: given the entry K191S , state whether its enrichment is greater than or equal to 3.
Result: no

Query: Textbook exercise: given the entry A368L , state whether its enrichment is greater than or equal to 3.
Result: no

Query: Textbook exercise: given the entry K340E , state whether its enrichment is greater than or equal to 3.
Result: yes

Query: Textbook exercise: given the entry R328E , state whether its enrichment is greater than or equal to 3.
Result: yes

Query: Textbook exercise: given the entry M238I , state whether its enrichment is greater than or equal to 3.
Result: no

Query: Textbook exercise: given the entry P405Q , state whether its enrichment is greater than or equal to 3.
Result: yes

Query: Textbook exercise: given the entry L375E , state whether its enrichment is greater than or equal to 3.
Result: yes

Query: Textbook exercise: given the entry T493A , state whether its enrichment is greater than or equal to 3.
Result: no

Query: Textbook exercise: given the entry A385K , state whether its enrichment is greater than or equal to 3.
Result: no

Query: Textbook exercise: given the entry Q345E , state whether its enrichment is greater than or equal to 3.
Result: yes

Query: Textbook exercise: given the entry D194N , state whether its enrichment is greater than or equal to 3.
Result: no

Query: Textbook exercise: given the entry K15A , state whether its enrichment is greater than or equal to 3.
Result: yes

Query: Textbook exercise: given the entry K66A , state whether its enrichment is greater than or equal to 3.
Result: yes

Query: Textbook exercise: given the entry I329K , state whether its enrichment is greater than or equal to 3.
Result: no

Query: Textbook exercise: given the entry V352K , state whether its enrichment is greater than or equal to 3.
Result: no

Query: Textbook exercise: given the entry D374K , state whether its enrichment is greater than or equal to 3.
Result: yes

Query: Textbook exercise: given the entry A155T , state whether its enrichment is greater than or equal to 3.
Result: no

Query: Textbook exercise: given the entry K66E , state whether its enrichment is greater than or equal to 3.
Result: yes

Query: Textbook exercise: given the entry L353P , state whether its enrichment is greater than or equal to 3.
Result: no

Query: Textbook exercise: given the entry K388E , state whether its enrichment is greater than or equal to 3.
Result: yes
